# target_system: [^125 I] CCK-8 binding sites (CCK receptor), Rat Pancreas (Rattus norvegicus, UniProt P30551)
# Sequence (P30551 whole entry): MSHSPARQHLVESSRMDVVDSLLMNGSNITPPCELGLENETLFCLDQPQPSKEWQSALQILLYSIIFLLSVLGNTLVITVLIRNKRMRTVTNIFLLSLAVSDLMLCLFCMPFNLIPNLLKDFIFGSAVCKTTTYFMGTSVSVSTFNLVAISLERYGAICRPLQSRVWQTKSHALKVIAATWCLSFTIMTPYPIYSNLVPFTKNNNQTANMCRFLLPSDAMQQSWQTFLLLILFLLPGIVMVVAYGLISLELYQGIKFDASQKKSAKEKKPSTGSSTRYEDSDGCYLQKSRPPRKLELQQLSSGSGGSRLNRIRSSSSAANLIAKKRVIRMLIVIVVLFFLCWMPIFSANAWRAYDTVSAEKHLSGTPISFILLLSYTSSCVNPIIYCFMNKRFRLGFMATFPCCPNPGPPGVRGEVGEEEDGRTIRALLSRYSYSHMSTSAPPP
Non-standard residues stand in square brackets, D forms with d. Residues, ends and D or L forms follow the SMILES beside them. *: point of attachment. sY = N[C@@H](Cc1ccc(OS(=O)(=O)O)cc1)C(=O)O; X1 = O=C(O)C[C@H](NS(=O)(=O)O)C(=O)*; NMeNle = CCCC[C@H](NC)C(=O)O; Nle = CCCC[C@H](N)C(=O)O
observation_type: IC50 (nM)
Give the number; nM is assumed, so skip it.

Examples from the recorded data:
• CSCC[C@H](NC(=O)[C@H](Cc1ccc(OS(=O)(=O)O)cc1)NC(=O)[C@@H](N)CC(=O)O)C(=O)NCC(=O)N[C@@H](Cc1c[nH]c2ccccc12)C(=O)N[C@@H](CCSC)C(=O)N[C@@H](CC(=O)O)C(=O)N[C@@H](Cc1ccccc1)C(N)=O [CCK-8, reference compound] = 0.129
• CCCC[C@H](NC(=O)[C@H](Cc1ccc(O)cc1)NC(=O)[C@@H](N)CC(=O)O)C(=O)NCC(=O)N[C@@H](Cc1c[nH]c2ccccc12)C(=O)N(C)[C@@H](CCCC)C(=O)N[C@@H](CC(=O)O)C(=O)N[C@@H](Cc1ccccc1)C(N)=O [Compound 5] = 170

Inquiry: Item CCCC[C@H](NC(=O)[C@H](Cc1ccc(OS(=O)(=O)O)cc1)NC(=O)[C@H](CC(=O)O)NS(=O)(=O)O)C(=O)NCC(=O)N[C@@H](Cc1c[nH]c2ccccc12)C(=O)N(C)[C@@H](CCCC)C(=O)N[C@@H](CC(=O)O)C(=O)N[C@@H](Cc1ccccc1)C(N)=O [Compound 10] (X1-[sY][Nle]GW[NMeNle]DF-NH2; N-terminus assumed) : provide IC50
Reply text: 1.39

====

# target_system: [^125 I] CCK-8 binding sites (CCK receptor), Rat Pancreas (Rattus norvegicus)
Non-standard residues stand in square brackets, D forms with d. Residues, ends and D or L forms follow the SMILES beside them. *: point of attachment. sY = N[C@@H](Cc1ccc(OS(=O)(=O)O)cc1)C(=O)O; X1 = O=C(O)C[C@H](NS(=O)(=O)O)C(=O)*; NMeNle = CCCC[C@H](NC)C(=O)O
# if measured IC50 < 50 nM: y  # else: n

- CCCC[C@H](NC(=O)[C@H](Cc1ccc(O)c(O)c1)NC(=O)[C@@H](N)CC(=O)O)C(=O)NCC(=O)N[C@@H](Cc1c[nH]c2ccccc12)C(=O)N[C@@H](CCCC)C(=O)N[C@@H](CC(=O)O)C(=O)N[C@@H](Cc1ccccc1)C(N)=O: y

Inquiry: Please check: IC50 for CCCC[C@H](NC(=O)[C@H](Cc1c[nH]c2ccccc12)NC(=O)CNC(=O)[C@H](NC(=O)[C@H](Cc1ccc(O)cc1)NC(=O)[C@@H](N)CC(=O)O)C(C)C)C(=O)N[C@@H](CC(=O)O)C(=O)N[C@@H](Cc1ccccc1)C(N)=O , strictly under 50 nM or not?
Reply text: n

Inquiry: Please check: IC50 for CCCC[C@@H](C(=O)N[C@@H](CC(=O)O)C(=O)N[C@@H](Cc1ccccc1)C(N)=O)N(C)C(=O)[C@H](Cc1c[nH]c2ccccc12)NC(=O)CNC(=O)[C@H](CCCC)N(C)C(=O)[C@H](Cc1ccc(O)cc1)NC(=O)[C@@H](N)CC(=O)O , strictly under 50 nM or not?
Reply text: n

Inquiry: Please check: IC50 for CCCC[C@H](NC(=O)[C@H](Cc1c[nH]c2ccccc12)NC(=O)CNC(=O)[C@@H](NC(=O)[C@H](Cc1ccc(O)cc1)NC(=O)[C@@H](N)CC(=O)O)C(C)C)C(=O)N[C@@H](CC(=O)O)C(=O)N[C@@H](Cc1ccccc1)C(N)=O , strictly under 50 nM or not?
Reply text: y

Inquiry: Please check: IC50 for CCCC[C@@H](C(=O)N[C@@H](CC(=O)O)C(=O)N[C@@H](Cc1ccccc1)C(N)=O)N(C)C(=O)[C@H](Cc1c[nH]c2ccccc12)NC(=O)CN [Compound 1, H-Gly-Trp-N-MeNle-Asp-Phe-NH2] (H-GW[NMeNle]DF-NH2) , strictly under 50 nM or not?
Reply text: n

Inquiry: Please check: IC50 for CCCC[C@@H](C(=O)N[C@@H](CC(=O)O)C(=O)N[C@@H](Cc1ccccc1)C(N)=O)N(C)C(=O)[C@H](Cc1c[nH]c2ccccc12)NC(=O)CNC(=O)[C@H](CCCC)N(C)C(=O)[C@H](Cc1ccc(OS(=O)(=O)O)cc1)NC(=O)[C@H](CC(=O)O)NS(=O)(=O)O [Compound 3] (X1-[sY][NMeNle]GW[NMeNle]DF-NH2; N-terminus assumed) , strictly under 50 nM or not?
Reply text: y

Inquiry: Please check: IC50 for CCCC[C@H](NC(=O)[C@H](Cc1c[nH]c2ccccc12)NC(=O)CNC(=O)[C@H](CCCC)N(C)C(=O)[C@H](Cc1ccc(O)cc1)NC(=O)[C@@H](N)CC(=O)O)C(=O)N[C@@H](CC(=O)O)C(=O)N[C@@H](Cc1ccccc1)C(N)=O , strictly under 50 nM or not?
Reply text: y

====

# target_system: [^125 I] CCK-8 binding sites (CCK receptor), Rat Brain (Rattus norvegicus, UniProt P30553)
# Sequence (P30553 1-452): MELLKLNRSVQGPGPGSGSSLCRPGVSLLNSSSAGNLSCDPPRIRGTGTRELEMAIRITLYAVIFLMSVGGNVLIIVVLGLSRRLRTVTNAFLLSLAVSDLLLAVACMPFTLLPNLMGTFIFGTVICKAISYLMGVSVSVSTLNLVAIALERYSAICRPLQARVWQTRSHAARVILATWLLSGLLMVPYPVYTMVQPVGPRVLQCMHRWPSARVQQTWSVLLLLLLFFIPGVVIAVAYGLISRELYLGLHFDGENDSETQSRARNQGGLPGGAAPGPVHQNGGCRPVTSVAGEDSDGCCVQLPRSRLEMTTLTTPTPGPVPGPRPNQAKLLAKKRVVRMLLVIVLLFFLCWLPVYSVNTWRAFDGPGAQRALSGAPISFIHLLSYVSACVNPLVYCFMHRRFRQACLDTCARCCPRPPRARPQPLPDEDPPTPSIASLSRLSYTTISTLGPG
Non-standard residues stand in square brackets, D forms with d. Residues, ends and D or L forms follow the SMILES beside them. *: point of attachment. sY = N[C@@H](Cc1ccc(OS(=O)(=O)O)cc1)C(=O)O; X1 = O=C(O)C[C@H](NS(=O)(=O)O)C(=O)*; NMeNle = CCCC[C@H](NC)C(=O)O
# if measured IC50 < 0.5 nM: t  # else: f

Reference set (3 entries):
- CCCC[C@H](NC(=O)[C@H](Cc1c[nH]c2ccccc12)NC(=O)CNC(=O)[C@@H](NC(=O)[C@H](Cc1ccc(O)cc1)NC(=O)[C@@H](N)CC(=O)O)C(C)C)C(=O)N[C@@H](CC(=O)O)C(=O)N[C@@H](Cc1ccccc1)C(N)=O: t
- CCCC[C@@H](C(=O)N[C@@H](CC(=O)O)C(=O)N[C@@H](Cc1ccccc1)C(N)=O)N(C)C(=O)[C@H](Cc1c[nH]c2ccccc12)NC(=O)CN [Compound 1, H-Gly-Trp-N-MeNle-Asp-Phe-NH2] (H-GW[NMeNle]DF-NH2): f
- CCCC[C@H](NC(=O)[C@H](Cc1c[nH]c2ccccc12)NC(=O)CNC(=O)[C@H](CCCC)N(C)C(=O)[C@H](Cc1ccc(O)cc1)NC(=O)[C@@H](N)CC(=O)O)C(=O)N[C@@H](CC(=O)O)C(=O)N[C@@H](Cc1ccccc1)C(N)=O: f

Next:
Inquiry: Please check: IC50 for CCCC[C@@H](C(=O)N[C@@H](CC(=O)O)C(=O)N[C@@H](Cc1ccccc1)C(N)=O)N(C)C(=O)[C@H](Cc1c[nH]c2ccccc12)NC(=O)CNC(=O)[C@H](CCCC)N(C)C(=O)[C@H](Cc1ccc(OS(=O)(=O)O)cc1)NC(=O)[C@H](CC(=O)O)NS(=O)(=O)O [Compound 3] (X1-[sY][NMeNle]GW[NMeNle]DF-NH2; N-terminus assumed) , strictly under 0.5 nM or not?
Reply text: f

====

# target_system: [^125 I] CCK-8 binding sites (CCK receptor), Rat Brain (Rattus norvegicus)
# Construct: from tissue; host or cells: rat brain
# measurement_notes: Inhibition of [125I] CCK-8 binding, rat brain
# condition_details: rat; IC50 pancreas / IC50 brain
Non-standard residues stand in square brackets, D forms with d. Residues, ends and D or L forms follow the SMILES beside them. *: point of attachment. sY = N[C@@H](Cc1ccc(OS(=O)(=O)O)cc1)C(=O)O; X1 = O=C(O)C[C@H](NS(=O)(=O)O)C(=O)*; NMeNle = CCCC[C@H](NC)C(=O)O
Parameter: Ratio Pancreas/Brain Rat. Scope: all listed entries.

Examples from the recorded data:
* CCCC[C@H](NC(=O)[C@H](Cc1ccc(O)c(O)c1)NC(=O)[C@@H](N)CC(=O)O)C(=O)NCC(=O)N[C@@H](Cc1c[nH]c2ccccc12)C(=O)N[C@@H](CCCC)C(=O)N[C@@H](CC(=O)O)C(=O)N[C@@H](Cc1ccccc1)C(N)=O [Compound 8, H-Asp-Dopa-Nle-Gly-Trp-Nle-Asp-Phe-NH2] | 0.0010
* CCCC[C@@H](C(=O)N[C@@H](CC(=O)O)C(=O)N[C@@H](Cc1ccccc1)C(N)=O)N(C)C(=O)[C@H](Cc1c[nH]c2ccccc12)NC(=O)CNC(=O)[C@H](CCCC)N(C)C(=O)[C@H](Cc1ccc(OS(=O)(=O)O)cc1)NC(=O)[C@H](CC(=O)O)NS(=O)(=O)O [Compound 3] (X1-[sY][NMeNle]GW[NMeNle]DF-NH2; N-terminus assumed) | 0.29

Here is the next item to consider.
Inquiry: Item CCCC[C@H](NC(=O)[C@H](Cc1c[nH]c2ccccc12)NC(=O)CNC(=O)[C@@H](NC(=O)[C@H](Cc1ccc(O)cc1)NC(=O)[C@@H](N)CC(=O)O)C(C)C)C(=O)N[C@@H](CC(=O)O)C(=O)N[C@@H](Cc1ccccc1)C(N)=O [Compound 6, H-Asp-Tyr-Val-Gly-Trp-Nle-Asp-Phe-NH2] : provide Ratio Pancreas/Brain Rat
Reply text: 33.5
